Provide the recorded TGI for the entries that follow.
# Tested on: IGROV1 ovarian
# Run Description: NCI tumour cell line growth inhibition, 48 h

Which TGI is listed for `COc1cc2c(NCCCCCCO[N+](=O)[O-])ncnc2c(OC)c1OC` ?
> 84.4 µM

Now give it for `COC(=O)[C@@H](C)C[C@H](Cc1ccccc1)NC(=O)c1nc([C@@H](C[C@H](C(C)C)N(C)C(=O)[C@@H](NC(=O)[C@H]2CCCN2C)C(C)C)OC(C)=O)sc1C` too.
> 25 µM

How about `ClCc1ccccc1CSc1ncnc2nc[nH]c12` ?
> 60 µM

Moving on to `CC(=O)Nc1ccc(Cl)c(Cl)c1`
> 100 µM

Now consider `O=C(N/N=C/c1cccc(O)c1O)N/N=C/c1cccc(O)c1O` and answer again.
> 100 µM

Now the compound `OCCNCO`
> 100 µM
